From: PubChem BioAssay (NCI)

Test system: HOP-62 NSCLC
assay.name: NCI tumour cell line growth inhibition, 48 h
measured.endpoint: GI50

• O=C1CC2OCC=C3CN4CCC56c7ccccc7N1C5C2C3CC46 (stereo not drawn) (tested in a mixture with another compound) = > 50 µg/mL
• CCN1C(=O)N(CC)C2C1NN=c1s/c(=C\c3cnc(C)n3C)c(=O)n12 (stereo not drawn) = 2.59 µM
• CC1(C)N=C(N)N=C(N)N1c1ccc(CCC(=O)Nc2cccc(S(=O)(=O)F)c2)cc1 = 6.56 µM

###

Test system: RXF 393 renal
assay.name: NCI tumour cell line growth inhibition, 48 h
measured.endpoint: TGI

* Nc1nc(Cl)c2ncn(Cc3ccc(-c4ccc(CCl)cc4)cc3)c2n1 | 54.4 µM
* COc1cc(N(CCC#N)CCC#N)ccc1/C(N=Nc1cccc(C)c1)=N\NC(=O)c1ccc(C)cc1 | > 100 µM
* Cc1ccc(NC(=O)CC2C(=O)Nc3ccccc3S2(=O)=O)cc1C (centres undefined) | > 100 µM
* CC(=O)NC1=CC(=O)C=C(Cl)C1=O | > 100 µM
* Cc1cn(C2CC(O)C(Cn3nncc3Cn3ccc(=O)[nH]c3=O)O2)c(=O)[nH]c1=O (centres undefined) | > 100 µM
* O=C(CN1CCN(c2ccccn2)CC1)Nc1ccc(Cl)cc1C(=O)c1ccccc1Cl | > 100 µM
* C/C(CC(O)(C(F)(F)F)C(F)(F)F)=N/Nc1ccc([N+](=O)[O-])cc1[N+](=O)[O-] | 7.53 µM
* COn1cc(C(=O)N=C(SC)SC)c2ccccc21 | 96.2 µM
* N#C/C=C\c1ccc(-c2cc(C(F)(F)F)cc(C(F)(F)F)c2)o1 | > 100 µM
* CCN(CC)c1ccc2cc(-c3csc(-c4ccc(N(C)C)cc4)n3)c(=O)oc2c1 | > 100 µM
* Nc1c(O)c(C(=O)O)cc2ccccc12 | > 100 µM
* CC(=O)N1c2ccc(-c3ccc(C(=O)O)cc3)cc2[C@H](Nc2ccc(Cl)cc2)C[C@@H]1C | 40.9 µM
* NC(N)=N/N=C/c1ccc(Br)cc1 | 12.3 µM
* O=c1ccc2nc3ccc(O)cc3oc-2c1 | > 100 µM

###

Tested on: DU-145 prostate
assay.name: NCI tumour cell line growth inhibition, 48 h
measured.endpoint: TGI

* COc1cccc(-c2cc(=O)c3cc(N4CCCC4)ccc3[nH]2)c1 | < 0.001 µM
* NC(N)=NC(N)=NCc1ccco1 | > 1250 µM
* Cc1cn(C2CC(O)C(Cn3nncc3Cn3ccc(=O)[nH]c3=O)O2)c(=O)[nH]c1=O (centres undefined) | > 100 µM
* C/C(CC(O)(C(F)(F)F)C(F)(F)F)=N/Nc1ccc([N+](=O)[O-])cc1[N+](=O)[O-] | > 10 µM
* CC(C)(C)OC(=O)CC(NC(=O)OC(C)(C)C)C(=O)Oc1ccc([N+](=O)[O-])cc1 (centres undefined) | > 100 µM
* CC1SC(c2cccc(Cl)c2)N(NC(=O)C(O)c2ccccc2)C1=O (centres undefined) | > 100 µM
* CC1OC(n2cnc3c(N)nc(Cl)nc32)C(C)(O)C1O (centres undefined) | > 25 µM
* O=C(NC(Cc1ccccc1)P(=O)(O)c1ccccc1)OCc1ccccc1 (centres undefined) | > 100 µM
* COc1ccc(-c2cc3c(N)ncnc3o2)cc1 | > 25 µM

###

Tested on: SN12C renal
assay.name: NCI tumour cell line growth inhibition, 48 h
Catalogue of TGI values
measured.endpoint: TGI

• COC(=O)c1c(OC(C)=O)ccc2c1c1cc3ccccc3c(OC(C)=O)c1n2C = > 100 µM
• CC(C)=C=CC(C)(C)NS(=O)(=O)NC(C)(C)C=C=C(C)C = > 100 µM
• O=C(OCc1ccccc1)c1ccccc1-c1c2ccc(=O)cc-2oc2cc(OCc3ccccc3)ccc12 = 74.4 µM
• CCCC(=O)Oc1cc(OC(=O)CCC)c2c(C)cc(=O)oc2c1 = > 100 µM
• O=C(N/N=C/c1cccc(O)c1)c1ccc(C(F)(F)F)nc1Nc1cccc(C(F)(F)F)c1 = 6.34 µM
• CCCCCCC(=O)CC(=O)C(=O)Nc1ccccc1C = > 100 µM
• CC(=O)NC1=CC(=O)C=C(Cl)C1=O = > 100 µM
• Cc1ccc(S(=O)(=O)N/N=C2\CC3C4CCC3C2C4)cc1 (stereo not drawn) = > 100 µM

###

System: SNB-75 CNS
assay.name: NCI tumour cell line growth inhibition, 48 h
Where a SMILES comes first, the peptide text is derived from it. The star is where a group is joined. Fmoc = O=C(OCC1c2ccccc2-c2ccccc21)*; Boc = CC(C)(C)OC(=O)*
measured.endpoint: TGI

* CC(C)(C)OC(=O)NCCCCC(NC(=O)C(Cc1c[nH]c2ccccc12)NC(=O)OCC1c2ccccc2-c2ccccc21)C(=O)O (configuration not stated) (Fmoc-Trp-Lys(Boc)-OH; configuration not given here) | > 100 µM
* NNC(=O)N/N=C1/C(=O)N(c2ccc(Cl)c(Cl)c2)C(=O)C(=O)C1c1nc2ccccc2o1 (configuration not stated) | > 100 µM
* CC(C)(C)c1cc2c(O)c(c1)COCc1cc(C(C)(C)C)cc(c1O)COCc1cc(C(C)(C)C)cc(c1O)COC2 | > 100 µM
* O=c1c2cc([N+](=O)[O-])cnc2sn1-c1ccc(Br)cc1 | > 100 µM
* COc1cc(C2SC(N)=Nc3c2c(C)nn3C(=O)c2ccc(Cl)cc2)ccc1O (configuration not stated) | > 10 µM
* Cc1cn(C2CC(O)C(Cn3nncc3Cn3ccc(=O)[nH]c3=O)O2)c(=O)[nH]c1=O (configuration not stated) | > 100 µM
* Cc1ccc(NC(=O)CC2C(=O)Nc3ccccc3S2(=O)=O)cc1C (configuration not stated) | > 100 µM
* COC(=O)C(C(=O)C(=O)Nc1ccc(N)cc1[N+](=O)[O-])c1nc2ccc(Cl)cc2[nH]c1=O (configuration not stated) | > 100 µM
* O=C(CN1CCN(c2ccccn2)CC1)Nc1ccc(Cl)cc1C(=O)c1ccccc1Cl | > 100 µM
* Cc1ccccc1NC(=O)CC(=O)n1nc(-c2ccccc2)c(N=Nc2ccc([N+](=O)[O-])cc2)c1-c1ccccc1 | > 100 µM
* NCCNc1ncnc2ccc(Cl)cc12 | > 100 µM
* CCCC(=O)OC1=C(c2ccccc2)Sc2ccccc2-n2cccc21 | > 10 µM

###

System: TK-10 renal
assay.name: NCI tumour cell line growth inhibition, 48 h
Catalogue of GI50 values
measured.endpoint: GI50

* CC1CC2(C)CC(=O)C1C1C(=O)N(CCN3CCOCC3)C(=O)C12 (centres undefined) | > 100 µM
* CN(C)c1ccc(/C=c2\sc3nnc(Cc4ccccc4)n3c2=O)cc1 | > 100 µM
* Nc1nc(Cl)c2ncn(Cc3ccc(-c4ccc(CCl)cc4)cc3)c2n1 | 6.44 µM
* CN1C(=O)C(C)(C)Oc2c(-c3cn(C)c(=O)c4[nH]ccc34)cc(S(C)(=O)=O)cc21 | 0.495 µM

###

Catalogue of TGI values
Tested on: EKVX NSCLC
assay.name: NCI tumour cell line growth inhibition, 48 h
measured.endpoint: TGI

* COc1ccc(/C=C/C(=O)/C=C(/C=C/c2ccc(OC)c(OC)c2OC)OB(F)F)c(OC)c1OC | > 100 µM
* Cc1ccc(C(=O)N/N=C(\N=Nc2ccccc2)c2ccc(N(CCC#N)CCC#N)cc2C)cc1 | > 100 µM
* O=C1NC(=O)C2(CCc3ccc(N(CCCl)CCCl)cc32)N1 (centres undefined) | 16.4 µM
* COc1ccc(-c2cc3c(N)ncnc3o2)cc1 | > 25 µM

###

Test system: BT-549 breast
assay.name: NCI tumour cell line growth inhibition, 48 h
TGI below 30 µM gives -1; TGI at or above it gives 1.

* CCCCCCCCC(=O)NCCN(CCN)C(=O)CCCCCCCC | -1
* CN1CCN(Cc2ccc(NC(=O)c3cncc(C#Cc4ncc5ccccn45)c3)cc2C(F)(F)F)CC1 | -1
* CC(C)C(=O)CP(=O)(O)O | 1
* C[C@H](c1ccc(Cl)cc1[N+](=O)[O-])N1C(=O)c2cc(I)ccc2NC(=O)[C@H]1c1ccc(Cl)cc1 | 1
* CCO/N=C(/CC)c1ccc(Br)s1 | 1
* CC1(C)O[C@@H](CP(c2ccc3ccccc3c2)c2ccc3ccccc3c2)[C@H](CP(c2ccc3ccccc3c2)c2ccc3ccccc3c2)O1 | 1
* CC1(C)N=C(N)N=C(N)N1c1ccc(CCC(=O)Nc2cccc(S(=O)(=O)F)c2)cc1 | 1
* Cc1cc2nc3c(C#N)c4c(c(Nc5ccc(Cl)cc5)n3c2cc1C)CCC4 | 1
* CC1(C)N=C(N)N=C(N)N1CCCCc1ccccc1 | 1
* COc1cc2c3c(n(CCCN4CCN(CCO)CC4)c(=O)c2cc1OC)-c1cc2c(cc1C3=O)OCO2 | -1
* COC(=O)C1=C(O)C(C(=O)OC)[C@@]2(O)[C@@H](C(=O)OC)C(c3ccccc3Cl)C[C@@H]1[C@@H]2C(=O)OC (some centres not stated) | 1
